Source of measurements: ChEMBL document CHEMBL1137997

target: Protein farnesyltransferase (Mus musculus) (UniProt Q61239+Q8K2I1); assay: Percent inhibition of H-Ras transformed NIH-3T3-cell proliferation at 100 nM; format: functional, cell-based; conditions: NIH3T3
MEASURE: inhibition (%)
Number in %, nothing else.

Below: 5 molecules and their reported inhibition.
- SMILES_STRUCTURE: "N#Cc1ccc(COCc2cncn2Cc2ccc(Cl)cc2)c(-c2ccc3c(c2)OCO3)c1"
  QUANTITY_UNIT: "%"
  inhibition: 11
- SMILES_STRUCTURE: "COc1cccc(-c2cc(C#N)ccc2COCc2cncn2Cc2ccc(C#N)nc2)c1"
  QUANTITY_UNIT: "%"
  inhibition: 35
- SMILES_STRUCTURE: "Cc1ccc(-c2cc(C#N)ccc2COCc2cncn2Cc2ccc(C#N)cc2)cc1C"
  QUANTITY_UNIT: "%"
  inhibition: 53
- SMILES_STRUCTURE: "N#Cc1ccc(Cn2cncc2COCc2ccc(C#N)cc2-c2ccc(Cl)c(Cl)c2)cc1"
  QUANTITY_UNIT: "%"
  inhibition: 10
- SMILES_STRUCTURE: "N#Cc1ccc(Cn2cncc2COCc2ccc(C#N)cc2-c2cccc3c2OCO3)cc1"
  QUANTITY_UNIT: "%"
  inhibition: 54

Q: Entry `N#Cc1ccc(Cn2cncc2COCc2ccc(C#N)cc2-c2cccc3ccccc23)cc1` needs its inhibition filled in; supply it.
Ans: 43

Q: Consider the molecule `N#Cc1ccc(Cn2cncc2COCc2cnc(C#N)cc2-c2cccc(Cl)c2)cc1` and give its recorded inhibition.
Ans: 26

Q: Look up and state reported inhibition for `COc1cccc(-c2cc(C#N)ccc2COCc2cncn2Cc2ccc(Cl)cc2)c1`
Ans: 0

Q: Give the reported value of inhibition for this record: `COc1ccc(-c2cc(C#N)ccc2COCc2cncn2Cc2ccc(C#N)cc2)cn1`
Ans: 25

Q: Return inhibition (reported value) for this molecule: `N#Cc1ccc(Cn2cncc2COCc2ccc(C#N)cc2-c2ccc3ccccc3c2)cc1`
Ans: 53

---

target: Protein farnesyltransferase (Mus musculus) (UniProt Q61239+Q8K2I1); assay: Percent inhibition of H-Ras transformed NIH-3T3-cell proliferation at 100 nM; format: functional, cell-based; conditions: NIH3T3
MEASURE: inhibition (%)
Report the value in % with no unit label.

A selection of reference data follows.
- SMILES_STRUCTURE: "N#Cc1ccc(COCc2cncn2Cc2ccc(C#N)cc2-c2cccc3ccccc23)c(-c2ccc3c(c2)OCO3)c1"
  QUANTITY_UNIT: "%"
  inhibition: 0
- SMILES_STRUCTURE: "N#Cc1ccc(Cn2cncc2COCc2ccc(C#N)cc2-c2cccc(OC(F)(F)F)c2)cc1"
  QUANTITY_UNIT: "%"
  inhibition: 54

In the following, a different compound is considered.
Q: Answer briefly: inhibition recorded on Protein farnesyltransferase (Mus musculus) (UniProt Q61239+Q8K2I1) for `N#Cc1ccc(OCc2cncn2Cc2ccc(C#N)c(-c3cccc4ccccc34)c2)cc1`
Ans: 49

---

molecular target: Protein farnesyltransferase (Bos taurus, UniProt P29702+P49355); test: Inhibition of bovine farnesyltransferase; assay type: protein-complex assay
pIC50: −log10 of the molar value.
pIC50 vs 9: at or above is y, below is n.

- MOLECULE: "N#Cc1ccc(Cn2cncc2COCc2ccc(C#N)cc2-c2ccc3c(c2)OCO3)nc1"
  STUDY_SYSTEM: "Protein farnesyltransferase (Bos taurus, UniProt P29702+P49355)"
  GROUP: "n"
- MOLECULE: "N#Cc1ccc(Cn2cncc2COc2ccc(C#N)c(-c3cccc4ccccc34)c2)cc1"
  STUDY_SYSTEM: "Protein farnesyltransferase (Bos taurus, UniProt P29702+P49355)"
  GROUP: "y"
- MOLECULE: "N#Cc1ccc(COCc2cncn2Cc2ccc(C#N)cc2-c2cccc3ccccc23)c(-c2ccc3c(c2)OCO3)c1"
  STUDY_SYSTEM: "Protein farnesyltransferase (Bos taurus, UniProt P29702+P49355)"
  GROUP: "n"
- MOLECULE: "N#Cc1ccc(Cn2cncc2COCc2ccc(C#N)c(-c3cccc4ccccc34)c2)cc1"
  STUDY_SYSTEM: "Protein farnesyltransferase (Bos taurus, UniProt P29702+P49355)"
  GROUP: "n"
- MOLECULE: "COc1cccc(-c2cc(C#N)ccc2COCc2cncn2Cc2ccc(Cl)cc2)c1"
  STUDY_SYSTEM: "Protein farnesyltransferase (Bos taurus, UniProt P29702+P49355)"
  GROUP: "n"
- MOLECULE: "CC1=C(Br)C=C(C#N)C(=O)C1Cn1cncc1COCc1ccc(C#N)cc1-c1ccc2c(c1)OCO2 (stereo not drawn)"
  STUDY_SYSTEM: "Protein farnesyltransferase (Bos taurus, UniProt P29702+P49355)"
  GROUP: "n"
- MOLECULE: "COc1cccc(-c2cc(C#N)ccc2COCc2cncn2Cc2ccc(C#N)cn2)c1"
  STUDY_SYSTEM: "Protein farnesyltransferase (Bos taurus, UniProt P29702+P49355)"
  GROUP: "n"
- MOLECULE: "N#Cc1ccc(Cn2cncc2COCc2ccc(C#N)cc2-c2cccc(OC(F)(F)F)c2)cc1"
  STUDY_SYSTEM: "Protein farnesyltransferase (Bos taurus, UniProt P29702+P49355)"
  GROUP: "y"
- MOLECULE: "CC(C)(C)c1ccc(-c2cc(C#N)ccc2COCc2cncn2Cc2ccc(C#N)cc2)cc1"
  STUDY_SYSTEM: "Protein farnesyltransferase (Bos taurus, UniProt P29702+P49355)"
  GROUP: "y"

Turning to the following molecule.
Q: Determine whether this molecule has pIC50 no lower than 9: `N#Cc1ccc(COCc2cncn2Cc2ccc(Cl)cc2)c(-c2ccc3c(c2)OCO3)c1`
Ans: n
